- experimental.system: Recombinant FGFR4 (Homo sapiens (Human))
- Sequence (P22455 22-802): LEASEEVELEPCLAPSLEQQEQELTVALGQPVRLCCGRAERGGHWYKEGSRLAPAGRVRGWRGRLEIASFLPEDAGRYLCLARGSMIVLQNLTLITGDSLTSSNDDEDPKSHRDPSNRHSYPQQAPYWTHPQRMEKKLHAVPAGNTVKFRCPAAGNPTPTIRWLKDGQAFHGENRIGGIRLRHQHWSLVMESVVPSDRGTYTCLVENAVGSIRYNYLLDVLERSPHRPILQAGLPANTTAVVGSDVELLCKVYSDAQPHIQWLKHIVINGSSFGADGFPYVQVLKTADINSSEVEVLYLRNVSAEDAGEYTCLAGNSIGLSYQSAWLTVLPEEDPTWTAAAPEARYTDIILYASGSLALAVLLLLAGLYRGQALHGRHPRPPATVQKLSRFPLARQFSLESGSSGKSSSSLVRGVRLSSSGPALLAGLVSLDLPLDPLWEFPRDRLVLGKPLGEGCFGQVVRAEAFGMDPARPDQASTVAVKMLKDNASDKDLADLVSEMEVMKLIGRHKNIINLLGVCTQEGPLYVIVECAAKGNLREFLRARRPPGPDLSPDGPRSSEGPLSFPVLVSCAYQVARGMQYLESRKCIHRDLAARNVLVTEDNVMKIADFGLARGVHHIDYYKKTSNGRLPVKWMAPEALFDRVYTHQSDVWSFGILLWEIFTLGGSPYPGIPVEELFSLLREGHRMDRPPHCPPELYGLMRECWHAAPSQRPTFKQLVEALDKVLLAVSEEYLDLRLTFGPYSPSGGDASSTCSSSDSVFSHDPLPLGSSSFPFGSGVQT
- protocol: Kinase HotSpot assay, IC50 profiling of kinase activity inhibition (FGFR4)
- condition.parameters: Table 1; 10 μM ATP
readout.label: IC50 (nM)
Provide the reading as a plain figure in nM.

// sample "C=CC(=O)Nc1ccccc1Nc1cc(N(C)C(=O)Nc2cc(OC)cc(OC)c2)ncn1" , its IC50 was 853

Data provenance: patent US9434697B2
